- Tested on: LXRb homodimer (NR concentration 270 nM)
- testName: PBM binding z-score (relative to random genomic background probes); higher = stronger binding; sequences stand for … in GC…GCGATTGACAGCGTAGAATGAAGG
Please map values of PBM binding z-score to classes as shown: lower bin: < -0.5; middle bin: ≥ -0.5 and < -0.04; upper bin: ≥ -0.04

Request: Just checking, what class would you give "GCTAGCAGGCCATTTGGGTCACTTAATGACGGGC" here?
Response: lower bin

###

Reported PBM binding z-score values for the following sequences.
- System: PPARg homodimer (NR concentration 180 nM)
- testName: PBM binding z-score (relative to random genomic background probes); higher = stronger binding; sequences stand for … in GC…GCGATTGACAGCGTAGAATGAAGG
Enter the number alone.

Recorded PBM binding z-score (sequence "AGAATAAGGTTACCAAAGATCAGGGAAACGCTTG" ): 0.8

Recorded PBM binding z-score (sequence "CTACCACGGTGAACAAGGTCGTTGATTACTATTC" ): 0.744

###

- System: THRa:RXRa (NR concentration 90 nM, RXRa partner concentration 90 nM)
- testName: PBM binding z-score (relative to random genomic background probes); higher = stronger binding; sequences stand for … in GC…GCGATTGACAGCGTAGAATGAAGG
Rule: y for PBM binding z-score not less than 2, n for anything less.

Request: Hello, I need to know if "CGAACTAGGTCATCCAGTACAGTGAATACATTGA" has measured PBM binding z-score not below 2. Thanks!
Response: y

Request: Hello, I need to know if "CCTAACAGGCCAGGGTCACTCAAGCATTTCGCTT" has measured PBM binding z-score not below 2. Thanks!
Response: y

###

- Tested on: FXR:RXRa (NR concentration 270 nM, RXRa partner concentration 90 nM)
- testName: PBM binding z-score (relative to random genomic background probes); higher = stronger binding; sequences stand for … in GC…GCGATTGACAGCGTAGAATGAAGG
Rule: criterion met for PBM binding z-score not less than 1, criterion not met for anything less.

Would you please look over these solved cases?
• AGAATGAGGTTAAGATCAGGGGAACAGAATACAT = criterion met
• GCTAGCAGGCCATTTAGGTCACTCAATGACGGGC = criterion not met
• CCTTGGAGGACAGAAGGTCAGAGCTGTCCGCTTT = criterion met

Request: Hello, I need to know if "ACTTACGGGTCAATGAGGTTATAGCACGCGTATA" has measured PBM binding z-score not below 1. Thanks!
Response: criterion met

Request: Hello, I need to know if "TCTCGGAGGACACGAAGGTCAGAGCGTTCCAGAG" has measured PBM binding z-score not below 1. Thanks!
Response: criterion met

Request: Hello, I need to know if "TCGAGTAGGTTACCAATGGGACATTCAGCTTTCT" has measured PBM binding z-score not below 1. Thanks!
Response: criterion not met

Request: Hello, I need to know if "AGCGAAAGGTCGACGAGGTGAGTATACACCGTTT" has measured PBM binding z-score not below 1. Thanks!
Response: criterion met

Request: Hello, I need to know if "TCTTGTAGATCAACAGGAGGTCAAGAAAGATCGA" has measured PBM binding z-score not below 1. Thanks!
Response: criterion met

###

- Tested on: RXRa DBDmut IVT, anti-RXR (DBD mutation: RXRa K156A/R161A, NR concentration 90 nM)
- testName: PBM binding z-score (relative to random genomic background probes); higher = stronger binding; sequences stand for … in GC…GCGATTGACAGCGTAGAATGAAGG
Rule: t for PBM binding z-score not less than 0.5, f for anything less.

Would you please look over these solved cases?
* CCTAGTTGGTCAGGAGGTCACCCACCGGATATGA | f
* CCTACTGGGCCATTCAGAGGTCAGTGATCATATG | f
* TTACCAAGGTGACGGTCGTTGATCCCTCTGTAGA | f
* ATATGTAGGTTACATCCGGGTCATTGAGGCTATG | t
* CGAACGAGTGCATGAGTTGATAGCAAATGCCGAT | t

Request: Hello, I need to know if "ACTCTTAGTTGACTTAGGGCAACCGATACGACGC" has measured PBM binding z-score not below 0.5. Thanks!
Response: t

Request: Hello, I need to know if "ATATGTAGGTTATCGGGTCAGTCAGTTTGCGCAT" has measured PBM binding z-score not below 0.5. Thanks!
Response: t

Request: Hello, I need to know if "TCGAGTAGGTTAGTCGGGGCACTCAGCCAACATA" has measured PBM binding z-score not below 0.5. Thanks!
Response: f
